Test system: brain, spinal cord, and DRG of the NHPs
METHOD_DESCRIPTION: NGS fold enrichment of synthetic library (passage 3) in NHPs, first cross-species screen
Assay type: in vivo, cynomolgus macaques (Macaca fascicularis)
CONDITION_DESCRIPTION: synthetic library passage 3, intravenous, RNA from spinal cord of NHPs, NGS, relative to wild-type AAV9
So basically, if Fold enrichment over AAV9 in the spinal cord of NHPs comes in under 1 fold it's t, and if it's 1 fold or more it's f.

QUERY: Input GSGQNQQPSLRQST ; condition: Fold enrichment over AAV9 in the spinal cord of NHPs strictly below 1 fold. Does it hold?
RESULT: f

QUERY: Bench note: check whether GSGQNQQSHGRIGT shows Fold enrichment over AAV9 in the spinal cord of NHPs below 1 fold
RESULT: f

QUERY: Dear reviewer, please state whether GSGQNQQTAHAFNI has Fold enrichment over AAV9 in the spinal cord of NHPs strictly beneath 1 fold.
RESULT: f

QUERY: # TODO verify Fold enrichment over AAV9 in the spinal cord of NHPs < 1 fold strictly for this sequence: GLHGMTLSGQNQQT
RESULT: f

QUERY: Hello, is Fold enrichment over AAV9 in the spinal cord of NHPs of the following sequence strictly smaller than 1 fold? GSGHPYKAAQNQQT
RESULT: t

QUERY: is_below(Fold enrichment over AAV9 in the spinal cord of NHPs, 1 fold) for GQLGSVGSGQDQQT ?
RESULT: t

QUERY: hey, is Fold enrichment over AAV9 in the spinal cord of NHPs for GLGSKNHSGQNQQT lower than 1 fold or not?
RESULT: f

QUERY: Report whether reported Fold enrichment over AAV9 in the spinal cord of NHPs is lower than 1 fold (strictly) for GSLDLGRSGQNQQT
RESULT: f

----------
Please go through the items and note down their Fold enrichment over AAV9 in the brain of Mice (BALB/c).
Test system: brain
METHOD_DESCRIPTION: NGS fold enrichment of synthetic library (passage 3) in BALB/c mice, first cross-species screen
Format: in vivo
CONDITION_DESCRIPTION: synthetic library passage 3, intravenous, RNA from brain of BALB/c mice, NGS, relative to wild-type AAV9
Value expressed in fold; do not type the unit.

QUERY: Would you mind telling me what Fold enrichment over AAV9 in the brain of Mice (BALB/c) value was observed for GSDQNQQLGYSKQT ?
RESULT: 0.660

QUERY: Entry under review: GSGQNQQHASSNNT . Reported Fold enrichment over AAV9 in the brain of Mice (BALB/c)?
RESULT: 0.896

QUERY: Can you share its Fold enrichment over AAV9 in the brain of Mice (BALB/c)? I mean this sequence: GQLGSVGSGQDQQT
RESULT: 0.437

QUERY: Item under review: GGSHTYGGGQNQQT . Reported Fold enrichment over AAV9 in the brain of Mice (BALB/c)?
RESULT: 0.730

QUERY: Please look up its Fold enrichment over AAV9 in the brain of Mice (BALB/c): GSGQSYDMRGNQQT
RESULT: 0.368

QUERY: Recorded Fold enrichment over AAV9 in the brain of Mice (BALB/c) of GSGQTARNGINQQT , please.
RESULT: 0.472

QUERY: Tell me the measured Fold enrichment over AAV9 in the brain of Mice (BALB/c) of GSGQNQGLLSSPQT , please.
RESULT: 0.417

QUERY: I am curious: what Fold enrichment over AAV9 in the brain of Mice (BALB/c) value has been reported for GSRETSLSGQNQQT ?
RESULT: 0.203

QUERY: Fold enrichment over AAV9 in the brain of Mice (BALB/c) lookup needed for GSGQNQQPSLRQST , thanks.
RESULT: 0.554

QUERY: I have this sequence here, GSGQNQQKVSPLLT , and I need its recorded Fold enrichment over AAV9 in the brain of Mice (BALB/c).
RESULT: 0.806

QUERY: Recorded Fold enrichment over AAV9 in the brain of Mice (BALB/c) of GSGQNQQWDSRRQT , please.
RESULT: 0.825

QUERY: Could you tell me which Fold enrichment over AAV9 in the brain of Mice (BALB/c) is on file for GQLVTFTSGQNQQT ?
RESULT: 0.294

QUERY: // lookup Fold enrichment over AAV9 in the brain of Mice (BALB/c) for GSGQNQRTMVATQT
RESULT: 0.554

QUERY: Any idea what Fold enrichment over AAV9 in the brain of Mice (BALB/c) was measured for GSGQNQQTVGGKNL ?
RESULT: 1.051

QUERY: Please look up its Fold enrichment over AAV9 in the brain of Mice (BALB/c): GSGQNQALVSMGQT
RESULT: 0.560

QUERY: Reported Fold enrichment over AAV9 in the brain of Mice (BALB/c) for GTEQTRQSGQNQQT : what is it?
RESULT: 0.756

QUERY: Please look up its Fold enrichment over AAV9 in the brain of Mice (BALB/c): GSGSVGFIGQNQQT
RESULT: 0.445

QUERY: Given the entry GSGEKVHSGQNQQT , report its measured Fold enrichment over AAV9 in the brain of Mice (BALB/c).
RESULT: 0.671

QUERY: So what does the record say about Fold enrichment over AAV9 in the brain of Mice (BALB/c) for GSEQTRQRGQNQQT ?
RESULT: 0.815

QUERY: Which value of Fold enrichment over AAV9 in the brain of Mice (BALB/c) has been reported for GCTTRLNSGQNQQT in the records?
RESULT: 0.618

QUERY: Requested field: Fold enrichment over AAV9 in the brain of Mice (BALB/c). Item: GSGASESHRQNQQT
RESULT: 0.313

QUERY: # input sequence: GSGQDVTKTGNQQT ; wanted: its Fold enrichment over AAV9 in the brain of Mice (BALB/c)
RESULT: 0.035

QUERY: Dear colleague, I am looking for the recorded Fold enrichment over AAV9 in the brain of Mice (BALB/c) of the following sequence: GSGQLVLTLQNQQT
RESULT: 0.336

QUERY: Please report the recorded Fold enrichment over AAV9 in the brain of Mice (BALB/c) for GSGFSHSMGKNQQT .
RESULT: 0.611

QUERY: For the sequence GSGRHLASVQNQQT , what Fold enrichment over AAV9 in the brain of Mice (BALB/c) is on record?
RESULT: 0.606

QUERY: Tell me the measured Fold enrichment over AAV9 in the brain of Mice (BALB/c) of GSGQNQQTNLGHTT , please.
RESULT: 1.281

QUERY: # get_value(readout='Fold enrichment over AAV9 in the brain of Mice (BALB/c)', item= GSGQNQGTVYPNQT )
RESULT: 0.815

QUERY: # query: Fold enrichment over AAV9 in the brain of Mice (BALB/c) of entry GSGQNQQINHRSPT
RESULT: 0.220

QUERY: Please give the measured Fold enrichment over AAV9 in the brain of Mice (BALB/c) for this sequence: GSGNMHASRQNQQT
RESULT: 0.687

QUERY: May I ask what Fold enrichment over AAV9 in the brain of Mice (BALB/c) has been recorded for GIPSIRESGQNQQT ?
RESULT: 0.254

QUERY: Can you look up the measured Fold enrichment over AAV9 in the brain of Mice (BALB/c) of GPASLPISGQNQQT for me?
RESULT: 0.155

QUERY: Entry GSGQNQQTSQSPPT has what Fold enrichment over AAV9 in the brain of Mice (BALB/c)?
RESULT: 0.478

QUERY: Any idea what its Fold enrichment over AAV9 in the brain of Mice (BALB/c) is? The sequence is GEVSRVLSGQNQQT
RESULT: 0.440

QUERY: Returns the measured Fold enrichment over AAV9 in the brain of Mice (BALB/c) for the input sequence. Input: GSGDDSRVGQNQQT
RESULT: 0.156

QUERY: Which Fold enrichment over AAV9 in the brain of Mice (BALB/c) is listed for GSGQNQQTGSSSRV ?
RESULT: 1.128
